# TARGET_UNDER_TEST: HLA-B*46:01
# ASSAY_METHOD_TEXT: IEDB peptide-MHC binding, purified MHC/competitive/fluorescence; filed as Kd, often an IC50 or EC50 that approximates it; bounds were set here for any values at or beyond the usual limits of such assays
# CONDITION: source organism: Homo sapiens

SEQUENCE | TARGET_UNDER_TEST | Kd
FTGEYLLRL | HLA-B*46:01 | ≥ 20 µM

====

# TARGET_UNDER_TEST: HLA-B*07:02
# ASSAY_METHOD_TEXT: IEDB peptide-MHC binding, purified MHC/competitive/radioactivity; filed as Kd, often an IC50 or EC50 that approximates it; bounds were set here for any values at or beyond the usual limits of such assays
# CONDITION: source organism: Vaccinia virus WR
Please respond with condition met when measured Kd is strictly beneath 2 µM, and with condition not met in all other cases.

SEQUENCE | TARGET_UNDER_TEST | ANSWER_LABEL
ATLMKTSCSK | HLA-B*07:02 | condition not met
TPNYMKLLV | HLA-B*07:02 | condition met
HPFIYVIRHV | HLA-B*07:02 | condition not met
MPNESRVKQW | HLA-B*07:02 | condition not met
SPMLYQLLEA | HLA-B*07:02 | condition met
DPEYFDNERI | HLA-B*07:02 | condition not met
LPSLEYGANY | HLA-B*07:02 | condition not met
LLFASMGFK | HLA-B*07:02 | condition not met
CPKIFNNNY | HLA-B*07:02 | condition not met
NPKASTISWM | HLA-B*07:02 | condition met

====

# TARGET_UNDER_TEST: HLA-A*03:01
# ASSAY_METHOD_TEXT: IEDB peptide-MHC binding, purified MHC/competitive/fluorescence; bounds were set here for any values at or beyond the usual limits of such assays
# CONDITION: source organism: Homo sapiens
This section presents sequences with their documented IC50 values.
PROPERTY_LABEL: IC50

SEQUENCE | TARGET_UNDER_TEST | PROPERTY_LABEL | REPORTED_RESULT
SLMASSPTSI | HLA-A*03:01 | IC50 | ≥ 20 µM
YPDPVIKV | HLA-A*03:01 | IC50 | ≥ 20 µM

====

# TARGET_UNDER_TEST: HLA-B*44:02
# ASSAY_METHOD_TEXT: IEDB peptide-MHC binding, purified MHC/competitive/radioactivity; filed as Kd, often an IC50 or EC50 that approximates it; bounds were set here for any values at or beyond the usual limits of such assays
# CONDITION: source organism: Mammarenavirus lassaense
pKd: −log10 of the molar value.

SEQUENCE | pKd
FDAATTGSL | ≤ 4.65

====

# TARGET_UNDER_TEST: HLA-A*30:02
# ASSAY_METHOD_TEXT: IEDB peptide-MHC binding, purified MHC/competitive/radioactivity; filed as Kd, often an IC50 or EC50 that approximates it; bounds were set here for any values at or beyond the usual limits of such assays
# CONDITION: source organism: Lassa virus Josiah
pKd: −log10 of the molar value.
Overview of reported pKd across a group of sequences:
PROPERTY_LABEL: pKd

SEQUENCE | OPERATOR_SYMBOL | REPORTED_RESULT
SCDFNGGKI | ≤ | 4.11
PEDPVEIALY | = | 6.02
